Test system: MDA-MB-231
Protocol Summary: cells
Format: functional, cell-based
Measurement Parameters: Homo sapiens
Description: Antiproliferative activity against human MDA-MB-231 cells
Endpoint: IC50
The answer should read as a number with its unit following.

Consider the compound N#CC1=C(N)Oc2c(ccc3[nH]c4ccccc4c23)C12C(=O)N(Cc1cn(Cc3ccc([N+](=O)[O-])cc3)nn1)c1ccccc12 (centres undefined) and give its recorded IC50.
51.2 µM

Consider the compound CCC(C)Cn1cc(CN2C(=O)C3(C(C#N)=C(N)Oc4c3ccc3[nH]c5ccccc5c43)c3ccccc32)nn1 (centres undefined) and give its recorded IC50.
3.8 µM

Consider the compound N#CC1=C(N)Oc2c(ccc3[nH]c4ccccc4c23)C12C(=O)N(Cc1cn(Cc3ccc(C(F)(F)F)cc3)nn1)c1ccccc12 (centres undefined) and give its recorded IC50.
61.9 µM

Consider the compound CC(=O)O[C@H]1C(=O)[C@@]2(C)[C@H]([C@H](OC(=O)c3ccccc3)[C@]3(O)C[C@H](OC(=O)[C@H](O)[C@@H](NC(=O)c4ccccc4)c4ccccc4)C(C)=C1C3(C)C)[C@]1(OC(C)=O)CO[C@@H]1C[C@@H]2O [PACLITAXEL] and give its recorded IC50.
0.1 µM

All figures here come from ChEMBL document CHEMBL5226286.
